Data credit: patent US20250228958A1

assay: Serum stability test, human serum; assay type: in vitro ADME; settings: both sexes, residual ratio: IS ratio at 4 hours relative to 0 hours, 37° C.
Starred links: 1 amine or outer side, 2 acyl side, 3 side chain; linkers in the order of their positions; H or OH if unused. Positions of bridges follow the written chain, without caps; N, C: chain ends. Non-standard residues stand in square brackets, D forms with d. Residues, ends and D or L forms follow the SMILES beside them. 2Nal = N[C@@H](Cc1ccc2ccccc2c1)C(=O)O; Gly(cPent) = N[C@H](C(=O)O)C1CCCC1; Agb = N=C(N)NCC[C@H](N)C(=O)O; hCys = N[C@@H](CCS)C(=O)O; CH2 = C([*:1])[*:2]
// reported remaining at 4 h, 20 μM for each item listed

| Compound | remaining at 4 h, 20 μM |
| --- | --- |
| N=C(N)NCCC[C@@H]1NC(=O)CNC(=O)[C@@H]2CSCSCC[C@H](NC(=O)[C@H](Cc3c[nH]c4ccccc34)NC(=O)[C@H](CC(=O)O)NC1=O)C(=O)N[C@@H](CCCNC(=N)N)C(=O)N[C@@H](Cc1c[nH]c3ccccc13)C(=O)N[C@@H](C1CCCC1)C(=O)N[C@H](C(N)=O)CSCC(=O)N[C@@H](Cc1ccc3ccccc3c1)C(=O)N[C@@H](CCCNC(=N)N)C(=O)N2 [Peptide-131] ({CH2CO}-[2Nal]RCGRDW[hCys]RW[Gly(cPent)]C-NH2; linker 3-8 via CH2; thioether N-12) | 101% |
| N=C(N)NCCC[C@@H]1NC(=O)CNC(=O)[C@@H]2CSCSC[C@H](NC(=O)[C@H](Cc3c[nH]c4ccccc34)NC(=O)[C@H](CC(=O)O)NC1=O)C(=O)N[C@@H](CCCNC(=N)N)C(=O)N[C@@H](Cc1c[nH]c3ccccc13)C(=O)N[C@@H](C1CCCC1)C(=O)N[C@H](C(N)=O)CSCC(=O)N[C@@H](Cc1ccc3ccccc3c1)C(=O)N[C@@H](CCCNC(=N)N)C(=O)N2 [Peptide-130] ({CH2CO}-[2Nal]RCGRDWCRW[Gly(cPent)]C-NH2; linker 3-8 via CH2; thioether N-12) | 88% |
| CC(C)[C@@H]1NC(=O)[C@H](Cc2c[nH]c3ccccc23)NC(=O)[C@H](CC(N)=O)NC(=O)[C@H](CCNC(=N)N)NC(=O)CNC(=O)[C@H](CO)NC(=O)[C@H](CCCNC(=N)N)NC(=O)[C@H](Cc2ccc3ccccc3c2)NC(=O)CSC[C@@H](C(N)=O)NC(=O)[C@H](C2CCCC2)NC(=O)[C@H](Cc2c[nH]c3ccccc23)NC(=O)[C@H](CCCNC(=N)N)NC1=O [Peptide-115] ({CH2CO}-[2Nal]RSG[Agb]NWVRW[Gly(cPent)]C-NH2; thioether N-12) | 78.2% |
| N=C(N)NCCC[C@@H]1NC(=O)[C@H](Cc2ccc3ccccc3c2)NC(=O)CSC[C@@H](C(N)=O)NC(=O)[C@H](C2CCCC2)NC(=O)[C@H](Cc2c[nH]c3ccccc23)NC(=O)[C@H](CCCNC(=N)N)NC(=O)[C@@H]2CCSSCC[C@H](NC1=O)C(=O)NCC(=O)N[C@@H](CCNC(=N)N)C(=O)N[C@@H](CC(N)=O)C(=O)N[C@@H](Cc1c[nH]c3ccccc13)C(=O)N2 [Peptide-1] ({CH2CO}-[2Nal]R[hCys]G[Agb]NW[hCys]RW[Gly(cPent)]C-NH2; disulfide 3-8; thioether N-12) | 93.9% |
